Biological target: RPS19 (UniProt P39019)
Experiment: Kd (EC50 corrected by depletion factor)
QUANTITY: pKd
By convention, pKd is the negative base-10 log of a molar concentration.

Req: Entry under review: CUGUCCU . Reported pKd?
Resp: 7.16
